Values from ChEMBL document CHEMBL1154084

Test system: Mycobacterium tuberculosis
assay-info: Antitubercular activity against Mycobacterium tuberculosis H37Rv by broth dilution method
Type: functional
parameter-measured: MIC90

Example results:
# compound, observed-measurement
data = [
    ("CC1C/C(=N/NC(=O)c2ccncc2)CC(C)(C)C1 (stereo not drawn)", "< 0.025 µg/mL"),
    ("O=C(N/N=C/c1c(Cl)cccc1Cl)c1ccncc1", "< 6.25 µg/mL"),
]

Lab note: next compound to report on.
Exam item: Fill blank: measured MIC90 of the compound "CCC/C=C/C=N/NC(=O)c1ccncc1" is ____.
Marked response: < 6.25 µg/mL
